- SUBJECT OF TEST: UniProt:P49327
- Sequence (P49327 whole entry): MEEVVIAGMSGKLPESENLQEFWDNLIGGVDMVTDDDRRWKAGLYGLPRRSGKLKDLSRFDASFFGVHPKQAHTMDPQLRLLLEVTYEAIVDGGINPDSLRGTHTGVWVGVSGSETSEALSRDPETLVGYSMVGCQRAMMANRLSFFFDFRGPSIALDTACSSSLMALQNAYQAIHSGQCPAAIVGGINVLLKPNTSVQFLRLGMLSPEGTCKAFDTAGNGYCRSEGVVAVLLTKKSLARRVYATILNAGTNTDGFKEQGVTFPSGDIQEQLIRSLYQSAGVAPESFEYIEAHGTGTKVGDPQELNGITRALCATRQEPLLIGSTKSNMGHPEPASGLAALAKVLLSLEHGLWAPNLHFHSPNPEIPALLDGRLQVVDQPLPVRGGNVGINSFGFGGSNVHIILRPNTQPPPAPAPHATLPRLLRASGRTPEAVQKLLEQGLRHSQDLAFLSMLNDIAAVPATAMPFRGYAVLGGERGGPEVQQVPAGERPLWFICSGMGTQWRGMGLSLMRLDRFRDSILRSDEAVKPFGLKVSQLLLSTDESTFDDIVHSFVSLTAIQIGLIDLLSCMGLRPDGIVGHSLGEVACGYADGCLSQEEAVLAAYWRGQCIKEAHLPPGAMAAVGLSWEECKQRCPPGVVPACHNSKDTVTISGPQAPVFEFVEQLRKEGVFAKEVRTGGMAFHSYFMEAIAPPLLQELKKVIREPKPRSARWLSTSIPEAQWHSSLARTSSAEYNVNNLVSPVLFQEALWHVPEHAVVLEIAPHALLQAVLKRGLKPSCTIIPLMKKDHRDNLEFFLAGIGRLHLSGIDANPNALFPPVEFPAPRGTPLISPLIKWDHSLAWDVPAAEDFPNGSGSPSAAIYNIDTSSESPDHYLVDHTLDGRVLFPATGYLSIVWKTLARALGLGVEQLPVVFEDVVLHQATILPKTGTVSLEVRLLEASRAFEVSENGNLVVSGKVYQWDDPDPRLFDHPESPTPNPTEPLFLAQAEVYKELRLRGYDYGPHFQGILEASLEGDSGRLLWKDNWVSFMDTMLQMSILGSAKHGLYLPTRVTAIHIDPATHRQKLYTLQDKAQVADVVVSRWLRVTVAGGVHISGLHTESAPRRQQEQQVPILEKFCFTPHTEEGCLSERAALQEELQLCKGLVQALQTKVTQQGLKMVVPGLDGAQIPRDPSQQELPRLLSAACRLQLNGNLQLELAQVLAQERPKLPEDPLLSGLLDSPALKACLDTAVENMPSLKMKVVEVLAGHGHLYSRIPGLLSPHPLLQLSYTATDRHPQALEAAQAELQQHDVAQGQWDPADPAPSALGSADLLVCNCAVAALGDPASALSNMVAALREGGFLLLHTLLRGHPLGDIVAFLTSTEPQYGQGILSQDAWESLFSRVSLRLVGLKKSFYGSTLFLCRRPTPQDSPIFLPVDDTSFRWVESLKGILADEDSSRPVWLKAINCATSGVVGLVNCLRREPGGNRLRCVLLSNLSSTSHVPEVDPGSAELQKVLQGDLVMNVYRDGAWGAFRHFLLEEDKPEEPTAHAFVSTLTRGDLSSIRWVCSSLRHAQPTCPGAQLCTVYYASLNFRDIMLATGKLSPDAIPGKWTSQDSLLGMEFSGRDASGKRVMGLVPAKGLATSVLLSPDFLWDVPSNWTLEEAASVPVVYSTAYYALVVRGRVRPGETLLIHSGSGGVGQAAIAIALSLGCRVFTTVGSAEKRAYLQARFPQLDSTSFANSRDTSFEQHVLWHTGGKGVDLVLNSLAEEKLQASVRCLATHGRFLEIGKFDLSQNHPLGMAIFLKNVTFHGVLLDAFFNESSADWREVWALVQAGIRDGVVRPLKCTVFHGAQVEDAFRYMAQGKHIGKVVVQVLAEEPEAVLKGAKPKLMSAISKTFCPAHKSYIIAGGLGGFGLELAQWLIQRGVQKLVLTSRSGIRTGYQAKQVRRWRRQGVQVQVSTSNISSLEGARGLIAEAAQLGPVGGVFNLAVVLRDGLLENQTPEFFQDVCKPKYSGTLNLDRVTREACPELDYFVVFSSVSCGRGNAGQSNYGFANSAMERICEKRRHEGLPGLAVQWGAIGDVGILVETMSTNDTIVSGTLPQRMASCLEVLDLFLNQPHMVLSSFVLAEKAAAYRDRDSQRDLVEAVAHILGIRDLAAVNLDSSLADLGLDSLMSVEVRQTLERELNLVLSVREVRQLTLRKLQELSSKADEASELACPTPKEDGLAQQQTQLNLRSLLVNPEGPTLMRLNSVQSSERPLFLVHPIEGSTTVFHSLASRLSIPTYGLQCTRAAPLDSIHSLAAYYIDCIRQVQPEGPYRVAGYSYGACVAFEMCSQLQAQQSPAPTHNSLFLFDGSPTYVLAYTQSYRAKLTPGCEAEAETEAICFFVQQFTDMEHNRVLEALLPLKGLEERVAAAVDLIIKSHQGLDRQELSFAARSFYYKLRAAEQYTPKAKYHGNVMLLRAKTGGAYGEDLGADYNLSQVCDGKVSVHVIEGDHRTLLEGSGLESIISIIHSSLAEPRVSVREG
- PROCEDURE TEXT: inhibition of human FAS-TE enzyme activity – biochemical, kinetic fluorescence intensity, dose response (AID 624326);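 further: rate of fluorescence rise from hydrolysis of a fluorogenic O-methyl fluorescein ester substrate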
- Assay type: functional
Activity calls are given as the source filed them. No stated cut-off is given here; in the data, active = IC50 of 20 µM or less and inactive = more.
Outcomes you can answer with include only these: 1 (yes) for active, 0 (no) for inactive

O=C1[C@H]2[C@@H](c3ccc(F)cc3)N3C(=O)N(c4ccccc4)C(=O)[C@@]3(Cc3ccccc3)[C@H]2C(=O)N1C1CCCCC1
1 (yes)
O=C(/C=C/c1cccc([N+](=O)[O-])c1)NCCSCc1ccco1
1 (yes)
Cc1ccc(NC(=O)c2[nH]cnc2C(=O)N[C@@H](CCCCNC(=O)OC(C)(C)C)C(=O)OC(C)(C)C)cc1
1 (yes)
CCOc1ccc(N(CC(=O)N/N=C/c2ccccn2)S(=O)(=O)c2ccc(Cl)cc2)cc1
1 (yes)
Cc1cccc(NC(=O)CSc2nc3c(oc4ccccc43)c(=O)n2-c2ccccc2)c1
0 (no)

Enquiry: How was COc1ccc(C(CC(=O)Nc2cc([N+](=O)[O-])ccc2OC)c2ccccc2)cc1 (centres undefined) classified in this test?
Return: 1 (yes)

Enquiry: How was O=C(NCc1ccc2c(c1)OCO2)c1cc([N+](=O)[O-])ccc1N1CCOCC1 classified in this test?
Return: 1 (yes)

Enquiry: How was CCCC(=O)N(C1CC(C)C(C#N)(C#N)C1(C#N)C#N)N(C)C (centres undefined) classified in this test?
Return: 1 (yes)

Enquiry: How was Cc1ccc(C(=O)NCCSC(C)(C)C)cc1[N+](=O)[O-] classified in this test?
Return: 1 (yes)
